Target: T1, Biotinylated Human VEGF165 (ACROBiosystems, Cat. No. VE5-H82Q0) (human, UniProt P15692-4 27-191, biotinylated (site not stated))
T1 construct: Bought reagent; also called Human VEGF-Bio; human VEGF165-Bio
T1 sequence (P15692 other isoform, or with tags, fused parts or gaps limits assumed): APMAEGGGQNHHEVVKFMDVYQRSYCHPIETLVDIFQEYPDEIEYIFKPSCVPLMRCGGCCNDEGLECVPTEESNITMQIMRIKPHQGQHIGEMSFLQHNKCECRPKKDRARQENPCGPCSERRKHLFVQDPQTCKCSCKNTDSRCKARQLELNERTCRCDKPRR
Assay: BLI (Octet RED96e), method of Example 4, antibody on AHC sensor, 1:1 fit
Description: The antigen and antibody were both diluted with 1×PBST (1×PBS: Sango Biotech, B548117-0500; 0.02% Tween 20: sigma-alorich, P1379), the antigen was used at a concentration of 100 nM, and the antibody was used at a concentration of 50 nM. (2) On-board detection of samples (Octet Data Acquisition 11.1.0.11): First, the samples were added to a 96-well plate (Greiner bio-one, 655209), and the system was 200 μL/well. […]
Below, each entry is listed alongside its reported kon.

binder	kon, M⁻¹ s⁻¹
Ab1910VE24 (expressed affinity-matured single domain antibody, clone YC43B1) (VHH) VHH: EVQLVESGGGLVQPGGSLRLSCAASGSTSDIVSMAWYRQAPGKERELVSAVFAEDWRYVEDSVKGRFTISRDNSKNTVYLQMNSLRAEDTAVYYCNVRLRITDWYSRERLDYWGQGTLVTVSS	1.37e+06
Ab1910VE18 (expressed single domain antibody with the Ab1910VE9 parent sequence, molecule before affinity maturation) (VHH, Its theoretical pI (7.5) differs from that of Ab1910VE9 (7), so it is kept apart from Ab1910VE9) VHH: EVQLVESGGGLVQPGGSLRLSCAASGSTSDIVSMAWYRQAPGKERELVSAVFAEDWRYVEDSVKGRFTISRDNSKNTVYLQMNSLRAEDTAVYYCNVRLRITDERRRERLDYWGQGTLVTVSS	1.81e+06
Ab1910VE23 (expressed affinity-matured single domain antibody, clone YC43H2) (VHH) VHH: EVQLVESGGGLVQPGGSLRLSCAASGSTSDIVSMAWYRQAPGKERELVSAVFAEDWRYVEDSVKGRFTISRDNSKNTVYLQMNSLRAEDTAVYYCNVRLRIPHQWRTERLDYWGQGTLVTVSS	1.43e+06
Ab1910VE21 (expressed affinity-matured single domain antibody, clone YC41D1) (VHH) VHH: EVQLVESGGGLVQPGGSLRLSCAASGSTSDIVSMAWYRQAPGKERELVSAVLAPGWSYVEDSVKGRFTISRDNSKNTVYLQMNSLRAEDTAVYYCNVRLRITDERRRERLDYWGQGTLVTVSS	1.24e+06
